# Target Or System: T1, P60 (huANGPTL7-Fibrinogen-his) (human, UniProt O43827 129-343)
# T1 construct: also called human ANGPTL7 fibrinogen domain; not shown: C-terminal short linker and His tag
# T1 sequence: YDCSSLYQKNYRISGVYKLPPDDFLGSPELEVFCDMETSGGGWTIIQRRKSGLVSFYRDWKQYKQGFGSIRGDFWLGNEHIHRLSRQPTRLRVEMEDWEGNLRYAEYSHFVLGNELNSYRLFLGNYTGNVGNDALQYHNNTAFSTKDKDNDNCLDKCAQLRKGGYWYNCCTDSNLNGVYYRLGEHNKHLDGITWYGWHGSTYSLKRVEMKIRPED
# Protocol Notes: BLI Octet HTX; IgG on AHC sensor; P60 at 200 nM; 1:1 fit
Parameter: Kd. Scope: all listed entries.
Param answer (str): number followed by unit.

Q) # input binder: ATX-P-440 (antibody, human IgG1, kappa, N297A, V domains shown, Full chains (VH + hIgG1-Agly-Fc)) VH: EVQLVESGGGVVRPGGSLRLSCAASGFTFDDYGMSWVRQAPGKGLEWVSTINWNGGNTGYADSVKGRFTISRDNAKNSLYLQMNSLRAEDTALYYCARDEGAAGLGYYFDYWGQGTLVTVSS VL: DIQMTQSPSTLSASVGDRVTITCRASQSISSWLAWYQQKPGKAPKLLIYATSSLQSGVPSRFSGSGSGTDFTLTISSLQPEDFATYYCQQSYSTPITFGQGTRLEIKR ; wanted: its Kd
A) 55.8 nM

Q) # input binder: ATX-P-435 (antibody, human IgG1, kappa, N297A, V domains shown, Full chains (VH + hIgG1-Agly-Fc)) VH: QLQLQESGPGLVKPSETLSLTCTVSGGSISSSSSYWGWIRQPPGKGLEWIGSIYYSGSTYSNPSLKSRVTISVDTSKNQFSLKLSSVTAADTAVYYCARQYISGTEYFQYWGQGTLVTVSS VL: EIVLTQSPATLSLSPGERATLSCRASQSVSNYLAWYQQKPGQAPRLLIYDASNRATGIPARFSGSGSGTDFTLTISSLEPEDFAVYYCQQRSNWPSFGQGTRLEIKR ; wanted: its Kd
A) 77 nM

Q) # input binder: ATX-P-433 (antibody, IgG1, V domains shown, Full chains (VH + hIgG1-Agly-Fc)) VH: EVQLVESGGGLVQPGRSLRLSCAASGFTFDDFAMHWVRQGPGKGLEWVSGIGWNSGSIGYADSVKGRFTISRDNAKNSLYLQMNSLRAEDTALYYCAKAPDYGDYYFDYWGQGTLVTVSS VL: DIQMTQSPSSLSASVGDRVTITCRASQSISIYLNWYQQKPGTAPKLLIYAASSLQSGVPSRFSGSGSGTDFTLTISSLQPEDFAAYYCQQSYTTPLTFGGGTKVEIKR ; wanted: its Kd
A) 10.9 nM
